# test-system: human c-kit (Homo sapiens, UniProt P10721)
# Construct: GST-tagged recombinant kinase domain of the human c-kit; GST; host or cells: SF-9 insect cells
# Sequence (P10721 589-937 limits assumed): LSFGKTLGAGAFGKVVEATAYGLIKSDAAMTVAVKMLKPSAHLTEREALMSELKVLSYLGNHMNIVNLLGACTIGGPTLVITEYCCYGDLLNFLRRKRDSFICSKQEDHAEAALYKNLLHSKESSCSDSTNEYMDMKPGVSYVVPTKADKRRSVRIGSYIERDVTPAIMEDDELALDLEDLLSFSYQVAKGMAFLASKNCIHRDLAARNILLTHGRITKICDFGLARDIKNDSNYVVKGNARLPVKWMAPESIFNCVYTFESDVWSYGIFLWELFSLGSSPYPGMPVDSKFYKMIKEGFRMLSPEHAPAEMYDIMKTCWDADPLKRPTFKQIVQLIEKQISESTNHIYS
# test-summary: cKIT-Kinase HTRF-Assay (assay 4)
# Assay type: biochemical
# setup-conditions: IC50 assay 4/IC50 assay 2
# Description: Assay 4: cKIT-Kinase HTRF-Assay c-Kit-inhibitory activity of compounds of the present invention was quantified employing the c-kit HTRF assay as described in the following paragraphs. GST-tagged recombinant kinase domain of the human c-kit expressed in SF-9 cells was used as kinase. As substrate for the kinase reaction biotinylated poly-(Glu,Tyr) (Cis biointernational, France) was used. […]

>  <compound>
Cn1nc(N)c2c(-c3ccc(NC(=O)Nc4cccc(C(F)(F)F)c4)cc3)cc(C3(C(N)=O)CC3)nc21 [Example 2.1]

>  <limit-qualifier>
=

>  <Selectivity vs. cKit>
6

$$$$
>  <compound>
CCNC(=O)C1(c2cc(-c3ccc(NC(=O)Nc4cccc(C(F)(F)F)c4)cc3)c3c(N)nn(C)c3n2)CC1 [Example 1.5]

>  <limit-qualifier>
>

>  <Selectivity vs. cKit>
100

$$$$
>  <compound>
COC(=O)C[C@@H]1C[C@H](c2cc(-c3ccc(NC(=O)Nc4cccc(C(F)(F)F)c4)cc3)c3c(N)nn(C)c3n2)C1(C)C [Example 8.2]

>  <limit-qualifier>
=

>  <Selectivity vs. cKit>
30

$$$$
>  <compound>
Cn1nc(N)c2c(-c3ccc(NC(=O)Nc4cccc(C(F)(F)F)c4)cc3)cc(C3(C(=O)N4CCCC4)CC3)nc21 [Example 1.13]

>  <limit-qualifier>
>

>  <Selectivity vs. cKit>
100

$$$$
>  <compound>
CNC(=O)C1(c2cc(-c3ccc(NC(=O)Nc4cccc(C(F)(F)F)c4)cc3)c3c(N)nn(C)c3n2)CC1 [Example 1.4]

>  <limit-qualifier>
=

>  <Selectivity vs. cKit>
9

$$$$
>  <compound>
Nc1n[nH]c2nccc(-c3ccc(NC(=O)Nc4cccc(C(F)(F)F)c4)cc3)c12 [PA2, reference compound]

>  <limit-qualifier>
=

>  <Selectivity vs. cKit>
0.67

$$$$
>  <compound>
CC(C)NC(=O)C1(c2cc(-c3ccc(NC(=O)Nc4cccc(C(F)(F)F)c4)cc3)c3c(N)nn(C)c3n2)CC1 [Example 1.6]

>  <limit-qualifier>
>

>  <Selectivity vs. cKit>
100

$$$$

====

# test-system: human c-kit (Homo sapiens)
# Construct: GST-tagged recombinant kinase domain of the human c-kit; GST; host or cells: SF-9 insect cells
# test-summary: cKIT-Kinase HTRF-Assay (assay 4)
# Type: biochemical
# setup-conditions: IC50 assay 4/IC50 assay 2
readout-kind: Selectivity vs. cKit

>  <compound>
Cn1nc(N)c2c(-c3ccc(NC(=O)Nc4cccc(C(F)(F)F)c4)cc3)cc(C3CCC3)nc21 [Example 6.1]

>  <limit-qualifier>
=

>  <quantitative-readout>
20

$$$$
>  <compound>
CCOC(=O)C1(c2cc(-c3ccc(NC(=O)Nc4cccc(C(F)(F)F)c4)cc3)c3c(N)nn(C)c3n2)CC1 [Example 1.2]

>  <limit-qualifier>
>

>  <quantitative-readout>
30

$$$$
>  <compound>
Cc1ccc(F)c(NC(=O)Nc2ccc(-c3ccnc4c3c(N)nn4C)cc2)c1 [PA5, reference compound]

>  <limit-qualifier>
=

>  <quantitative-readout>
0.5

$$$$
>  <compound>
CN(C)CCNC(=O)C1(c2cc(-c3ccc(NC(=O)Nc4cccc(C(F)(F)F)c4)cc3)c3c(N)nn(C)c3n2)CC1 [Example 1.9]

>  <limit-qualifier>
=

>  <quantitative-readout>
10

$$$$
>  <compound>
CCOC(=O)C1(c2cc(-c3ccc(NC(=O)Nc4ccccc4)cc3)c3c(N)nn(C)c3n2)CC1 [Example 1.1]

>  <limit-qualifier>
=

>  <quantitative-readout>
4

$$$$
>  <compound>
CN(C)C(=O)C[C@@H]1C[C@H](c2cc(-c3ccc(NC(=O)Nc4cccc(C(F)(F)F)c4)cc3)c3c(N)nn(C)c3n2)C1(C)C [Example 8.4]

>  <limit-qualifier>
=

>  <quantitative-readout>
19

$$$$
>  <compound>
Cn1nc(N)c2c(-c3ccc(NC(=O)Nc4cccc(C(F)(F)F)c4)cc3)cc(C3(C(=O)NC4CC4)CC3)nc21 [Example 1.12]

>  <limit-qualifier>
>

>  <quantitative-readout>
100

$$$$
